# experimental_system: T1, DR4 (TRAIL-R1) on cancer cells (human, UniProt O00220 24-468)
# T1 sequence: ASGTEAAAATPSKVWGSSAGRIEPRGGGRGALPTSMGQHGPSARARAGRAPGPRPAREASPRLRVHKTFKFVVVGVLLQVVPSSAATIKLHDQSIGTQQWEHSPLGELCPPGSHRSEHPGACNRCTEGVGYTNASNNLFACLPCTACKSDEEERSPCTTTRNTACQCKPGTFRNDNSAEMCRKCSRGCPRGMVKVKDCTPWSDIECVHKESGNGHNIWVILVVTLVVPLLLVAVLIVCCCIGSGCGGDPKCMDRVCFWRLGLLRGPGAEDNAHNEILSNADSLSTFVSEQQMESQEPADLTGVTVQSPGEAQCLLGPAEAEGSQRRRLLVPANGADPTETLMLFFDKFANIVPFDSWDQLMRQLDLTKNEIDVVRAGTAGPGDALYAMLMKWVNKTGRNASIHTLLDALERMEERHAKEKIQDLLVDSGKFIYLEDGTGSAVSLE
# test: cell-based or functional assay
We label by threshold. Values of EC50 ST486 (cell killing) strictly beneath 90 pM are True. Values of 90 pM and up are False.

[[record]]
binder = "142p62P1A2 (designed binder) EPPTQKPKKIVNAKKDVVNTKMFEELKSRLDTLAQEVALLKEQQALQTVCLKGTKVHMKCFLAFTQTKTFHEASEDCISRGGTLSTPQTGSENDALYEYLRQSVGNEAEIWLGLNGWLEGSGWVDMTGARIAYKNWGDQRLAQPDGGVQWRWENCAVLSGAANGKWFDKRCRDQLPYICQFGIV"
label = "False"

[[record]]
binder = "142p72P1C9 (designed binder) EPPTQKPKKIVNAKKDVVNTKMFEELKSRLDTLAQEVALLKEQQALQTVCLKGTKVHMKCFLAFTQTKTFHEASEDCISRGGTLSTPQTGSENDALYEYLRQSVGNEAEIWLGLNGWLEGSGWVDMTGARIAYKNWGDPRWSQPDGGVQWRWENCAVLSGAANGKWFDKRCRDQLPYICQFGIV"
label = "True"

[[record]]
binder = "65p114P1A3 (designed binder) EPPTQKPKKIVNAKKDVVNTKMFEELKSRLDTLAQEVALLKEQQALQTVCLKGTKVHMKCFLAFTQTKTFHEASEDCISRGGTLSTPQTGSENDALYEYLRQSVGNEAEIWLGLNGWLEGSGWVDMTGARIAYKNWADPKWSQPDGGVQWRWENCAVLSGAANGKWFDKRCRDQLPYICQFGIV"
label = "True"

[[record]]
binder = "142p62P1G2 (designed binder) EPPTQKPKKIVNAKKDVVNTKMFEELKSRLDTLAQEVALLKEQQALQTVCLKGTKVHMKCFLAFTQTKTFHEASEDCISRGGTLSTPQTGSENDALYEYLRQSVGNEAEIWLGLNGWLEGSGWVDMTGARIAYKNWADERFLQPDGGVQWRWENCAVLSGAANGKWFDKRCRDQLPYICQFGIV"
label = "False"

